Reference source: the supplement of paper PMC10567573

Items are presented alongside their recorded protein stability index.
B1: KRT34 (parent)
chain: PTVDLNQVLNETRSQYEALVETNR

Variants of: B1
Assay text: protein stability index of a GFP-peptide fusion (GPS, HEK-293T) (PSI 1-6); higher = more stable;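 further: lentivirally expressed fusions sorted by FACS into six bins by GFP to DsRed ratio, PSI derived from sequencing read proportions per bin multiplied by bin number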
Measurement conditions: c terminus: a fixed tail appended

- Variant label: "T22M"
  protein stability index: 3.19
- Variant label: "L9P"
  protein stability index: 5.34
- Variant label: "Q7S"
  protein stability index: 3.62
